src = patent US20250074907A1

target.entity: main protease (Mpro) of SARS-CoV-2 (Severe acute respiratory syndrome coronavirus 2 (2019-nCoV) (SARS-CoV-2), UniProt P0DTD1)
assay.text: Enzyme IC50 of SARS-CoV-2 inhibitors
Type: biochemical
run.conditions: Table 2, List of compounds
pIC50: −log10 of the molar value.
As shown below, each of these compounds has a reported pIC50 value.

So, Cc1cncc(C(=O)N2CCC(=C3c4ccccc4C[S+]([O-])c4ccccc43)CC2)c1 (stereo not shown) [NZ- 826] ? Its pIC50 was 7.15 to 7.22

So, Cc1cncc(C(=O)N2CCC(=C3c4ccccc4CS(=N)(=O)c4ccccc43)CC2)c1 (stereo not shown) [NZ- 827] ? Its pIC50 was 7.24

So, Cc1cncc(C(=O)N2CCN(C3c4cc(F)ccc4CS(=O)(=O)c4ccccc43)CC2)c1 (stereo not shown) [NZ- 833] ? Its pIC50 was 6.89 to 7.18

So, O=C(c1cncc2cc[nH]c12)N1CCC(=C2c3ccccc3C3OC3c3ccccc32)CC1 (stereo not shown) [NZ- 838] ? Its pIC50 was 7.04

So, O=C(c1cncc2cc[nH]c12)N1CCC(=C2c3ccccc3C[S+]([O-])c3ccccc32)CC1 (stereo not shown) [NZ- 829] ? Its pIC50 was 7.51 to 7.82

So, O=C(c1cncc2cc[nH]c12)N1CCN(C2c3cc(F)ccc3CS(=O)(=O)c3ccccc32)CC1 (stereo not shown) [NZ- 834] ? Its pIC50 was 7.33 to 7.85

So, Cc1cncc(C(=O)N2CCC(=C3c4ccccc4CC(=O)c4sccc43)CC2)c1 [NZ- 835] ? Its pIC50 was 7.32 to 7.57

So, O=C(c1cncc2cc[nH]c12)N1CCN(C2c3ccccc3CS(=O)(=O)c3ccc(F)cc32)CC1 (stereo not shown) [NZ- 832] ? Its pIC50 was 7.74

So, O=C(c1cncc2cc[nH]c12)N1CCC(=C2c3ccccc3CSc3ccccc32)CC1 [NZ- 828] ? Its pIC50 was 7.48 to 7.68

So, O=C1Cc2ccccc2C(=C2CCN(C(=O)c3cncc4cc[nH]c34)CC2)c2ccccc21 [NZ- 839] ? Its pIC50 was 7.74

----------
target.entity: main protease (Mpro) of SARS-CoV-2 (Severe acute respiratory syndrome coronavirus 2 (2019-nCoV) (SARS-CoV-2))
assay.text: Enzyme IC50 of SARS-CoV-2 inhibitors
Format: biochemical
run.conditions: Table 1, Example SARS-COV-2 inhibitors
quantity.kind: IC50 (µM)
// return numeric value only (unit: µM, not printed)

So, Cc1cncc(-c2nnc3n2CCN(C(c2ccccc2)c2ccccc2)C3)c1 [PKJ-585] ? Its IC50 was 5.8

----------
target.entity: main protease (Mpro) of SARS-CoV-2 (Severe acute respiratory syndrome coronavirus 2 (2019-nCoV) (SARS-CoV-2), UniProt P0DTD1)
assay.text: Enzyme IC50 of SARS-CoV-2 inhibitors
Type: biochemical
run.conditions: Table 2, List of compounds
pIC50: −log10 of the molar value.
quantity.kind: pIC50

So, N=S1(=O)Cc2ccccc2C(=C2CCN(C(=O)c3cncc4cc[nH]c34)CC2)c2ccccc21 (stereo not drawn) ? Its pIC50 was 7.41 to 7.49

So, Cc1cncc(C(=O)N2CCN(C3c4ccccc4CS(=O)(=O)c4ccc(F)cc43)CC2)c1 (stereo not drawn) ? Its pIC50 was 7.35

So, O=C1Cc2ccccc2C(=C2CCN(C(=O)c3cncc4cc[nH]c34)CC2)c2ccsc21 ? Its pIC50 was 7.70 to 8.05
